Reference source: the supplement of paper PMC11451515

Test system: NOMO1
ASSAY_TEXT: cell viability relative to DMSO control; higher = less cytotoxic
ASSAY_CONTEXT: RPMI 5 mM glucose + 10% FBS; 48 h; 0.000781 µM
REPORTED_ENDPOINT: cell viability (%)
Numbers only here, please. The scale is %.

compound=COc1cc(C(=O)NC2CCN(C)CC2)ccc1Nc1ncc2c(n1)N(C1CCCC1)CCC(=O)N2C(C)C reported_value=99.3
compound=C[C@H](CCC(=O)O)[C@H]1CC[C@H]2[C@@H]3[C@H](O)C[C@@H]4C[C@H](O)CC[C@]4(C)[C@H]3CC[C@]12C reported_value=85
compound="CC(C)C1CCC(C(=O)N[C@H](Cc2ccccc2)C(=O)O)CC1 (some centres not stated)" reported_value=93.5
compound=Cc1cn2cc(C(=O)N(C)CCO)cc(N[C@@H]3CCOc4cccc(C)c43)c2n1 reported_value=96.2

What reported cell viability corresponds to "N[S+](=O)([O-])c1ccc(Nc2nc(OCC3CCCCC3)c3[nH]cnc3n2)cc1" on NOMO1?
97.1

GET /values?readout=cell viability&system=NOMO1&item= "CO[C@@H](C(=O)N1Cc2[nH]nc(NC(=O)c3ccc(N4CCN(C)CC4)cc3)c2C1)c1ccccc1"
80.4

GET /values?readout=cell viability&system=NOMO1&item= CCC(CCCC)COC(=O)C(\C#N)=C(\c1ccccc1)c2ccccc2 (configuration not stated)
92.6

----------
Test system: P12-Ichikawa
ASSAY_TEXT: cell viability relative to DMSO control; higher = less cytotoxic
ASSAY_CONTEXT: HPLM + 10% dialyzed FBS; 48 h; 1.71 µM
As shown below, each of these molecules has a reported cell viability value.
Expressed in %, but write only the number.

smiles_repr=CCCCCNC(=N)N/N=C/c1c[nH]c2ccc(OC)cc12 reported_endpoint="cell viability" reported_value=137
smiles_repr=COc1ccccc1[C@H](c1cccc2ccccc12)[C@@](C)(C#N)C(=O)N1CCC(c2cccc(C(F)(F)F)c2)CC1 reported_endpoint="cell viability" reported_value=107
smiles_repr=CC/C=C\C[C@H]1C(=O)CC[C@@H]1CC(=O)OC reported_endpoint="cell viability" reported_value=115
smiles_repr=Clc2cccc(Cl)c2\N=C1/NCCN1 reported_endpoint="cell viability" reported_value=120

Could you tell me which cell viability is on file for "Cc1cn2cc(C(=O)N(C)CCO)cc(N[C@@H]3CCOc4cccc(C)c43)c2n1" ?
115

----------
Test system: P12-Ichikawa
ASSAY_TEXT: cell viability relative to DMSO control; higher = less cytotoxic
ASSAY_CONTEXT: RPMI 5 mM glucose + 10% FBS; 48 h; 0.00234 µM
REPORTED_ENDPOINT: cell viability (%)
# unit: % | format: bare number

Study these solved cases before continuing.
molecule=Cc1ccc([C@@H]2O[C@H](CO)[C@@H](O)[C@H](O)[C@H]2O)cc1Cc1ccc(-c2ccc(F)cc2)s1 reported_value=121
molecule=C[C@H](NC(=O)Cc1cc(F)cc(F)c1)C(=O)N[C@H](C(=O)OC(C)(C)C)c1ccccc1 reported_value=91.7
molecule=CCn1nnc2c(N3CCOCC3)nc(-c3ccc(NC(=O)Nc4ccc(C(=O)N5CCN(C)CC5)cc4)cc3)nc21 reported_value=98.4

I am curious: what cell viability value has been reported for "O=C(O)c1cc(O)c2c(c1)C(=O)c1cccc(O)c1C2=O" ?
120

Requested read-out: cell viability. Entry: C[C@]1(O)CC(C1)C2=NC(=C3[N]2C=CN=C3N)C4=CC5=C(C=C4)C=CC(=N5)C6=CC=CC=C6 (stereo unspecified)
101

What value of measured cell viability is listed for NC1=NC(=O)N2CC12 (stereo unspecified) ?
91.2
